Biological target: K-Ras^G12C : hSOS1 interaction (Homo sapiens, UniProt Q07889)
Assay: Biochemical assay 1: K-Ras^G12C interaction assay with hSOS1 (HTRF)
Assay type: binding
Conditions: read-out: Assay 1 (KRAS-SOS Interaction) activity expressed as IC50
Please provide measured pIC50 for the entries that follow.
Units for pIC50: none; it is -log10 of a concentration expressed in mol/L.

[ask] Value lookup for pIC50; key = COc1cc2nc(C)nc(NC(C)c3ccc(-c4cccc(CN)c4)s3)c2cc1OC (stereo not shown)
[reply] 5.56

[ask] Value lookup for pIC50; key = COc1cc2nc(C)nc(N[C@H](C)c3cccc(-c4ccccc4)c3)c2cc1OC
[reply] 6.38

[ask] Value lookup for pIC50; key = COc1cc2nc(C)nc(N[C@H](C)c3cccc(-c4cnn(C)c4)c3)c2cc1OC
[reply] 6.49

[ask] Value lookup for pIC50; key = CCC/C=C/c1cccc([C@@H](C)Nc2nc(C)nc3cc(OC)c(OC)cc23)c1
[reply] 5.77
